Each entry below lists one item and its recorded Dmax value.
# system_under_test: HiBit-WIZ fusion protein (Homo sapiens, UniProt O95785+Q96SW2)
# Sequence (O95785 whole entry, the tested form may be a part): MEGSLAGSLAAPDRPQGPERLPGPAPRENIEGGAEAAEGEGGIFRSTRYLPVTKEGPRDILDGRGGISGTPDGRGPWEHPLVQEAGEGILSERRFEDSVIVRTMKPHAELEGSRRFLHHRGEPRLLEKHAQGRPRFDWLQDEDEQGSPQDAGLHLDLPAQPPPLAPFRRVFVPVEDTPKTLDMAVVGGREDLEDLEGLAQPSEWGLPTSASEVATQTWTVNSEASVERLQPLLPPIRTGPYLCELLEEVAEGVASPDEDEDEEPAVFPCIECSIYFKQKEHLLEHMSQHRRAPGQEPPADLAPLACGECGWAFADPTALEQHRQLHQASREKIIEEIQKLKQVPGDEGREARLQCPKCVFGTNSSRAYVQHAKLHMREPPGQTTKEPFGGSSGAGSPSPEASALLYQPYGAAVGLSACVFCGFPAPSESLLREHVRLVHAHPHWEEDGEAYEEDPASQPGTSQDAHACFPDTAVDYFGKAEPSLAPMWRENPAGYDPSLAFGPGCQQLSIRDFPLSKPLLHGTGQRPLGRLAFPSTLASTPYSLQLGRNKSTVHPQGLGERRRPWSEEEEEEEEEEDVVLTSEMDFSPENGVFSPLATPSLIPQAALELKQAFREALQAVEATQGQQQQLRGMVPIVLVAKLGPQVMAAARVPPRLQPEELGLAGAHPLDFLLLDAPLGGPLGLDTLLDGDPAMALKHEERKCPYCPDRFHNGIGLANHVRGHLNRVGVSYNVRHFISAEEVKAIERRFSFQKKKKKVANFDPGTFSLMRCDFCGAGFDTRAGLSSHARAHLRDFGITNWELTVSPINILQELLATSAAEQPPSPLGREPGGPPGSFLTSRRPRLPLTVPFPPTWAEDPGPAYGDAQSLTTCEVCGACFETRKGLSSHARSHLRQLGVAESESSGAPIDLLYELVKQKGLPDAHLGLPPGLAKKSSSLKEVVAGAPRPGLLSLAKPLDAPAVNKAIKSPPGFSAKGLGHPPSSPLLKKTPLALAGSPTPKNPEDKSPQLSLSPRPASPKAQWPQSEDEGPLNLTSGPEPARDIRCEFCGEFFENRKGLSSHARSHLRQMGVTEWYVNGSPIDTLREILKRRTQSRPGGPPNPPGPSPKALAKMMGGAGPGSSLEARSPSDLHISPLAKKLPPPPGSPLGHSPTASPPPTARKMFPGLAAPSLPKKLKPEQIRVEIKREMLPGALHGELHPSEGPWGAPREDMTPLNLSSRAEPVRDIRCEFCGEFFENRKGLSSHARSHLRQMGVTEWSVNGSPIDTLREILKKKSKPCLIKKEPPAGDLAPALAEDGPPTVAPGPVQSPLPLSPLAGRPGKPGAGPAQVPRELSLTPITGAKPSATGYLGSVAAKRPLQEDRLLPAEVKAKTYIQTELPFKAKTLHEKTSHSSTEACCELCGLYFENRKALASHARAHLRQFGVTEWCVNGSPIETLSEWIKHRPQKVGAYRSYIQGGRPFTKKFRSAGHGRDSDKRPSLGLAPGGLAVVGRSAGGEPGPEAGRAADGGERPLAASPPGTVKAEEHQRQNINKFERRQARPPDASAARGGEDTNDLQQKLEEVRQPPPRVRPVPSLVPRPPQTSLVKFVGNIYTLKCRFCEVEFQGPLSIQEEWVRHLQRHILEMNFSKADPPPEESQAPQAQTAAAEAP
# Sequence (Q96SW2 whole entry, the tested form may be a part): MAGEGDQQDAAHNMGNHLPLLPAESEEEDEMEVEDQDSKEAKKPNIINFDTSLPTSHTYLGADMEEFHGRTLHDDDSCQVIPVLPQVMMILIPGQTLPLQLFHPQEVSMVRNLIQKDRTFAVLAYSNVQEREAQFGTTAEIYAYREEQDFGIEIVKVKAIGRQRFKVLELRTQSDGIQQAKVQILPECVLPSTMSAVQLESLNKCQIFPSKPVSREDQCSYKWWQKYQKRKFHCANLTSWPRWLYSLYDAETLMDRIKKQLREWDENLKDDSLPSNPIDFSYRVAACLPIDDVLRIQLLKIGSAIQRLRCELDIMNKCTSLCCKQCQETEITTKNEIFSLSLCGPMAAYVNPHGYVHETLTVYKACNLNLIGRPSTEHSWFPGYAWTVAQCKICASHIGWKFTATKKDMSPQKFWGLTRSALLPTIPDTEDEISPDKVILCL
# Sequence (Q16531 whole entry partner, the tested form may be a part): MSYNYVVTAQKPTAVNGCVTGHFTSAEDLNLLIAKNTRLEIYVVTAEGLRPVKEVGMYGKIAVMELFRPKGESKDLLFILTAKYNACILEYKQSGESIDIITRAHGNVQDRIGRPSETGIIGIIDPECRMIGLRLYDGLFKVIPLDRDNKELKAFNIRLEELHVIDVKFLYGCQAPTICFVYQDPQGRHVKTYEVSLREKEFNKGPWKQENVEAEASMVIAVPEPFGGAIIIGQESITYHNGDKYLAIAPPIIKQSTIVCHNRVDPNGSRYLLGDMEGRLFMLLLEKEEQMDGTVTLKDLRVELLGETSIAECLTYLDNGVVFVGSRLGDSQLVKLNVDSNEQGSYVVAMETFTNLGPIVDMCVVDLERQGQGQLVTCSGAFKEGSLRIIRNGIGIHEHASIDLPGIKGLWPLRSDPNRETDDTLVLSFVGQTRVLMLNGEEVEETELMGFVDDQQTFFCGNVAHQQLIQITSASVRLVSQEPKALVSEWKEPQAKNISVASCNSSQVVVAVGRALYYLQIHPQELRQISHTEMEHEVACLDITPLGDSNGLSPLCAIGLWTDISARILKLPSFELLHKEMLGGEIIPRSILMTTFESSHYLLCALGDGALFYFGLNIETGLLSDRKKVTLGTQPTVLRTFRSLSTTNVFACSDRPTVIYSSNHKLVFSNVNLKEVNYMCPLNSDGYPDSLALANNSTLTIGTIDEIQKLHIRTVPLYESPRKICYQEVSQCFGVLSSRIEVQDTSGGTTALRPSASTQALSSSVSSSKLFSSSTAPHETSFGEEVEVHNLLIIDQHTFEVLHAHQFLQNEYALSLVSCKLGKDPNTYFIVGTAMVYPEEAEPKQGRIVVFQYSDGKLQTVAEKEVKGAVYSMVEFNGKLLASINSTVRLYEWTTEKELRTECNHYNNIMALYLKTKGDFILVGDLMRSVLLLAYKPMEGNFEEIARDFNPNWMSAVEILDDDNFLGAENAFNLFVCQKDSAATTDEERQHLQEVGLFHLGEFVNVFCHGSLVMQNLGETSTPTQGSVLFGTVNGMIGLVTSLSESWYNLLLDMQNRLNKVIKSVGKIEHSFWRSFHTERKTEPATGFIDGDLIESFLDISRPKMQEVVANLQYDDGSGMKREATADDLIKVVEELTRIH
# protocol_description: Quantification of WIZ protein levels in HiBit tag fusion protein assay (WIZ HiBit assay in 293T cells)
# Assay type: cell-based
# Parameters: dose or concentration left out as unconfirmed
# test_context: HEK-293T, 100 minus Amax; 293T cells; read-out: % degradation of WIZ (100-Amax)
Respond with the bare value in %.

Examples from the recorded data:
CCCCCc1ccc(C(=O)N2CCCC[C@H]2COc2ccc3c(c2)CN(C2CCC(=O)NC2=O)C3=O)cc1 (stereo partly shown) [Compound I-72t]    69.9
CCCCc1cnc(C(=O)N2CCCC[C@H]2COc2ccc3c(c2)CN(C2CCC(=O)NC2=O)C3=O)nc1OC (stereo partly shown) [Compound I-72aw]    60.4
CC(C)(C)OC(=O)N1CCc2cccc(CN3CCCC[C@@H]3COc3ccc4c(c3)CN(C3CCC(=O)NC3=O)C4=O)c21 (stereo partly shown) [Compound I-110]    99.5

Now look at this one.
In: Entry under review: O=C1CCC(N2Cc3cc(OC[C@@H]4CCCCN4C(=O)c4ccc(Cl)c(I)c4)ccc3C2=O)C(=O)N1 (stereo partly shown) [Compound I-72ad] . Reported Dmax?
Out: 52.8

###

Here the recorded Dmax is given for each entry.
# system_under_test: HiBit-WIZ fusion protein (Homo sapiens, UniProt O95785+Q96SW2)
# protocol_description: Quantification of WIZ protein levels in HiBit tag fusion protein assay (WIZ HiBit assay in 293T cells)
# Type: cell-based
# Parameters: dose or concentration left out as unconfirmed
# test_context: HEK-293T, 100 minus Amax; 293T cells; read-out: % degradation of WIZ (100-Amax)

CC(C)(C)OC(=O)N1CCC(c2ccccc2CN2CCCC[C@@H]2COc2ccc3c(c2)CN(C2CCC(=O)NC2=O)C3=O)CC1 (stereo partly drawn)    87.6%
COc1ccc(CN2CCCC[C@@H]2COc2ccc3c(c2)CN(C2CCC(=O)NC2=O)C3=O)cc1C#N (stereo partly drawn)    78.8%
O=C1CCC(N2Cc3cc(OC[C@H]4CCCCN4Cc4ccc(F)cc4)ccc3C2=O)C(=O)N1 (stereo partly drawn)    99.4%
COc1cccc2c(C(=O)N3CCCC[C@H]3COc3ccc4c(c3)CN(C3CCC(=O)NC3=O)C4=O)c[nH]c12 (stereo partly drawn) [Compound I-72cq]    31.1%
O=C1CCC(N2Cc3cc(OC[C@H]4CCCCN4Cc4ccc(Cn5ccnc5)cc4)ccc3C2=O)C(=O)N1 (stereo partly drawn) [Compound I-50ek]    99.1%

With those in mind, consider the next compound.
In: Given the entry O=C1CCC(N2Cc3cc(OC[C@@H]4CCCCN4Cc4ccnc5[nH]ccc45)ccc3C2=O)C(=O)N1 (stereo partly drawn) [Compound I-50cx] , what Dmax was observed with HiBit-WIZ fusion protein (Homo sapiens, UniProt O95785+Q96SW2)?
Out: 92.6%

###

# system_under_test: HiBit-WIZ fusion protein (Homo sapiens, UniProt O95785+Q96SW2)
# protocol_description: Quantification of WIZ protein levels in HiBit tag fusion protein assay (WIZ HiBit assay in 293T cells)
# Assay type: cell-based
# Design: dose or concentration left out as unconfirmed
# test_context: HEK-293T, 100 minus Amax; 293T cells; read-out: % degradation of WIZ (100-Amax)
readout_kind: Dmax (%)
Write the number in % without appending the unit.

Use these answered entries as a reference point.
CC(C)Cn1cc(CN2CCCC[C@@H]2COc2ccc3c(c2)CN(C2CCC(=O)NC2=O)C3=O)cn1 (stereo partly drawn) [Compound I-50dw]    99
O=C1CCC(N2Cc3cc(OC[C@H]4CCCCN4Cc4cccc5c4NC(=O)CO5)ccc3C2=O)C(=O)N1 (stereo partly drawn)    15.3
CN(C)c1ncc(CN2CCCC[C@H]2COc2ccc3c(c2)CN(C2CCC(=O)NC2=O)C3=O)cn1 (stereo partly drawn) [Compound I-50m]    46.6
COc1cc(C#N)ccc1CN1CCCC[C@H]1COc1ccc2c(c1)CN(C1CCC(=O)NC1=O)C2=O (stereo partly drawn) [Compound I-50r]    34.4
O=C1CCC(N2Cc3cc(OC[C@H]4CCCCN4CCOCc4ccccc4)ccc3C2=O)C(=O)N1 (stereo partly drawn)    86.1

Let us examine a further case.
In: Can you share its Dmax? I mean this compound: O=C1CCC(N2Cc3cc(OC[C@@H]4CCCCN4Cc4cc(Cl)ccc4O)ccc3C2=O)C(=O)N1 (stereo partly drawn) [Compound I-50bj]
Out: 25.8
